Below, each entry is listed alongside its reported % inhibition @ 250 μM.
# Test system: 5-Lipoxygenase
# experimental_protocol: 5-Lox assay (colorimetric, ferric xylenol orange)
# Format: biochemical
# experimental_conditions: 250 μM test substance; linoleic acid substrate, pH 6.3
Report only the number, with the unit % understood.

Consider the following illustrative entries.
CC(=O)OC1CC[C@@]2(C)C(CC[C@]3(C)C2C(=O)C=C2C4[C@@H](C)[C@H](C)CC[C@]4(C)CC[C@]23C)[C@@]1(C)C(=O)NCCO (stereo partly shown) [Compound 22]
10.4
CC1CCC2(C)CCC3(C)C(=CC(=O)C4C5(C)CCC(OC(=O)CCC(=O)O)C(C)(C(=O)O)C5CCC43C)C2C1C (stereo not drawn) [Compound 4, 3-O -Succinyl-11-keto-β-boswellic acid]
41.1
C[C@@H]1CC[C@]2(C)CC[C@]3(C)C(=CC(O)C4[C@@]5(C)CC[C@@H](O)[C@](C)(C(=O)O)C5CC[C@]43C)C2[C@H]1C (stereo partly drawn) [Compound 27, 11-Hydroxy-β-boswellic acid]
12.2

Suppose we examine the molecule COc1cc(C=CC(=O)OC2CCC3(C)C(CCC4(C)C3C(=O)C=C3C5C(C)C(C)CCC5(C)CCC34C)C2(C)C(=O)O)cc(O)c1O (stereo not shown) [Compound 8] ; what % inhibition @ 250 μM value has been reported?
8.1
